assay_info: qHTS RealTime-Glo MT Cell Viability Assay in HEK293 cells - 40 hour (AID 1224874); note: % is set by controls: 0 for no effect and ±100 for the full control effect; nearly all actives have a fitted effect of over 50% in size
test_settings: RealTime-Glo luminescence; stronger effect = lower value
Results filed as inconclusive are left out. The source made the active and inactive calls. Calls come from the whole dose curve; as a rule, active = well fitted cell-killing curve with a large enough effect in the repeat runs; inconclusive = weak or mixed curves, or effect the other way; inactive = flat fitted curve, though single readings scatter.
max response listing for selected compounds.

[[record]]
smi = "O=C1C(c2[nH]c3ccccc3c2O)=Nc2ccccc21"
observed_property = "max response"
measured_value = "4.84% (inactive)"


Asked: Reported max response, compound CCCCCCCCCCCCCCCCO : ____
Given back: -1.41% (inactive)

Asked: CCOC(=O)c1ccc(N)cc1 ?
Given back: -17.4% (inactive)

Asked: C[C@]12CC[C@@H]3c4ccc(O)cc4CC[C@H]3[C@@H]1C[C@@H](O)[C@@H]2O ?
Given back: -25.2% (inactive)

====

target: Androgen receptor (Homo sapiens)
assay_info: qHTS assay to identify small molecule antagonists of the androgen receptor (AR) signaling pathway (AID 743035); note: % is set by controls: 0 for no effect and ±100 for the full control effect
test_settings: HEK293 AR-UAS-bla, R1881-stimulated, beta-lactamase FRET, 16 h; series mostly up to 58.5 µM
Records with an inconclusive call do not appear. Active and inactive are the calls of the source. The call rests on the fitted dose curve; in most records, active means well fitted inhibition curve with a large enough effect in the signal ratio in the repeat runs (not every such curve was filed as active); inconclusive means weak or mixed curves, or effect the other way; inactive means no such curve, though single readings can be large or run the other way; the % refers to the signal ratio.
observed_property: outcome

Some molecules with recorded outcome:
[[record]]
molecule = "CCNc1ccccc1"
target = "Androgen receptor (Homo sapiens)"
observed_property = "outcome"
measured_value = "inactive"

[[record]]
molecule = "CC(=O)OCc1ccccc1"
target = "Androgen receptor (Homo sapiens)"
observed_property = "outcome"
measured_value = "inactive"

[[record]]
molecule = "O=C(O)c1ccc(C(=O)O)c(C(=O)O)c1"
target = "Androgen receptor (Homo sapiens)"
observed_property = "outcome"
measured_value = "inactive"

[[record]]
molecule = "C[C@]12CCC(=O)C=C1CC[C@@H]1[C@@H]2[C@@H](O)C[C@@]2(C)[C@H]1CC[C@]2(O)C(=O)CO"
target = "Androgen receptor (Homo sapiens)"
observed_property = "outcome"
measured_value = "inactive"

[[record]]
molecule = "CCCCCC(=O)O"
target = "Androgen receptor (Homo sapiens)"
observed_property = "outcome"
measured_value = "inactive"

[[record]]
molecule = "OCc1ccccc1"
target = "Androgen receptor (Homo sapiens)"
observed_property = "outcome"
measured_value = "inactive"

[[record]]
molecule = "CC(C)CC(=O)CC(C)CC(C)C (stereo not drawn)"
target = "Androgen receptor (Homo sapiens)"
observed_property = "outcome"
measured_value = "inactive"


Asked: Reported outcome, molecule COC(=O)c1cccnc1 : ____
Given back: inactive

====

assay_info: A CellTox Green Cytotoxicity Assay to monitor cytotoxicity in HEK293 cells - 16 hour (AID 1224888); note: % is set by controls: 0 for no effect and ±100 for the full control effect; nearly all actives have a fitted effect of over 35% in size
test_settings: CellTox Green fluorescence; series mostly up to 76.8 µM
Inconclusive results are not listed. Active and inactive are the calls of the source. Calls come from the whole dose curve; as a rule, active = well fitted activation curve with a large enough effect in the repeat runs; inconclusive = weak or mixed curves; inactive = flat fitted curve, though single readings scatter.
observed_property: outcome

[[record]]
molecule = "COc1ccc([N+](=O)[O-])cc1N"
measured_value = "inactive"

[[record]]
molecule = "C=CC(C)CCCC(C)(C)O (configuration not stated)"
measured_value = "inactive"

[[record]]
molecule = "O=C(O)Cn1c(=O)n(Cc2ccc(Br)cc2F)c(=O)c2ccc(Cl)cc21"
measured_value = "inactive"

[[record]]
molecule = "CC(=O)OCc1ccco1"
measured_value = "inactive"

[[record]]
molecule = "CCCOC(=O)c1ccccc1"
measured_value = "inactive"


Asked: Reported outcome, molecule CC(=O)CCC=C(C)C : ____
Given back: inactive

Asked: CC(O)CC(C)(C)O (configuration not stated) ?
Given back: inactive

Asked: CN(C)CCOC(=O)COc1ccc(Cl)cc1 ?
Given back: inactive

Asked: COc1ccc(OC)cc1 ?
Given back: inactive

Asked: Nc1ccc(Cl)c(N)c1 ?
Given back: inactive

Asked: CN(C)c1ccc(O)c2c1C[C@H]1C[C@H]3[C@H](N(C)C)C(=O)C(C(N)=O)=C(O)[C@@]3(O)C(=O)C1=C2O ?
Given back: inactive

Asked: O=S(=O)(O)c1ccccc1 ?
Given back: inactive

Asked: CCO[Si](CCCN)(OCC)OCC ?
Given back: inactive

Asked: CC(C)c1cccc(C(C)C)c1 ?
Given back: inactive

Asked: CCNc1cccc(C)c1 ?
Given back: inactive

Asked: CNC(=S)N(C)C ?
Given back: inactive

Asked: C[Si]1(C)O[Si](C)(C)O[Si](C)(C)O[Si](C)(C)O1 ?
Given back: inactive

Asked: O=C(O)c1ccc(C(=O)O)c(C(=O)O)c1 ?
Given back: inactive

Asked: C=CCc1ccc(OC)c(OC)c1 ?
Given back: inactive

Values were extracted from PubChem BioAssay (Tox21).
